biological target: ROCK1 (Homo sapiens (Human), UniProt Q13464); test: ROCK assay (LABCHIP peptide phosphorylation), ROCK1; format: biochemical; conditions: 5 μM ATP, 1.5 μM peptide substrate; read-out: ROCK1 IC50
Sequence (Q13464 whole entry, species assumed): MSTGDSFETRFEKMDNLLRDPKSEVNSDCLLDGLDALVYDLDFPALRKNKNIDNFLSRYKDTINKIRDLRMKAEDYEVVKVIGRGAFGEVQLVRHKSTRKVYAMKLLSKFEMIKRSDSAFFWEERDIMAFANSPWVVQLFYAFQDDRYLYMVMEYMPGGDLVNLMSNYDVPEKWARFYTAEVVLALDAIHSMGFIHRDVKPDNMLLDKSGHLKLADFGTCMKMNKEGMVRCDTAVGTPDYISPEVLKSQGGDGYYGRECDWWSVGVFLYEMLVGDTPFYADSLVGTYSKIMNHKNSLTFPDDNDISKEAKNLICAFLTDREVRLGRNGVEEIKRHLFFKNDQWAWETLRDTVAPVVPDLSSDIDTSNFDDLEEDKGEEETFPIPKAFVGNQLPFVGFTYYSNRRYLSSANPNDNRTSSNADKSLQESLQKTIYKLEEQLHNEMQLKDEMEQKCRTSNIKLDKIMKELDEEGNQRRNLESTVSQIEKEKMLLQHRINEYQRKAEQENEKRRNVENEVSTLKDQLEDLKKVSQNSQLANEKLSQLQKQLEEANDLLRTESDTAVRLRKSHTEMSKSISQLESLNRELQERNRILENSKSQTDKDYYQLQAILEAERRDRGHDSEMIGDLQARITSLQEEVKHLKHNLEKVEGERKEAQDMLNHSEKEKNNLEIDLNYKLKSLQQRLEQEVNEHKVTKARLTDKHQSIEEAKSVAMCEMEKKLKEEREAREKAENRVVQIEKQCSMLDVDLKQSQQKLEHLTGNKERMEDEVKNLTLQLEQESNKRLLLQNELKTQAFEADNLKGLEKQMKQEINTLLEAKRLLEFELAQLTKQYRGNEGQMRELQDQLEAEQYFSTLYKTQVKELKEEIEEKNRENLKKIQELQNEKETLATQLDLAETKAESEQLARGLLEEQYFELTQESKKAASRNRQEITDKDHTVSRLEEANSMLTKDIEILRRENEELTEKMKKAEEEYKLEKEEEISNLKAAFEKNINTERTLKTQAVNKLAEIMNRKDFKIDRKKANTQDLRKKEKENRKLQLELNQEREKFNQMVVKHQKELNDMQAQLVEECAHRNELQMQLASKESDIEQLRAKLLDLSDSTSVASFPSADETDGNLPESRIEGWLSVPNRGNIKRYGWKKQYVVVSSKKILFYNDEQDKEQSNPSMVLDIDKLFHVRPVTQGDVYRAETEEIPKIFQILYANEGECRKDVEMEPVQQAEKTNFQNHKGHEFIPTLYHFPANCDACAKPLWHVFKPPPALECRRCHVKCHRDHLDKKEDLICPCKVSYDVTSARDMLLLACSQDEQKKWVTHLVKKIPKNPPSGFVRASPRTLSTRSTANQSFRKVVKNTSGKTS
Where a name gives a salt, the structure may show the parent alone.
observable: IC50

Record O=C(Cc1ccc(-c2n[nH]c(=O)c3ccccc23)cc1)Nc1ccccc1 : what is its IC50 with ROCK1 (Homo sapiens (Human), UniProt Q13464)?
1000 to 50000 nM

Try this molecule next: O=C(Nc1ccc(-c2n[nH]c(=O)c3ccccc23)cc1)c1ccn(-c2ccccc2)n1
0.1 to 100 nM

And then Cc1ccccc1-n1ncc(C(=O)Nc2ccc(-c3n[nH]c(=O)c4ccccc34)cc2)c1C , what is it?
0.1 to 100 nM

Also COc1cc(-c2n[nH]c(=O)c3ccccc23)ccc1NC(=O)c1nn(CC2CCOC2)c2ccccc12 (stereo not shown) ?
1000 to 50000 nM

What do we get for Cc1cc(NC(=O)c2nn(CC3CCOCC3)c3ccccc23)ccc1-c1n[nH]c(=O)c2ccccc12 ?
0.1 to 100 nM

Next: CN(C)c1cccc(C(=O)Nc2ccc(-c3n[nH]c(=O)c4ccccc34)cc2)c1
0.1 to 100 nM

O=C(Nc1ccc(-c2n[nH]c(=O)c3ccccc23)cc1)c1cnn(C2CCC2)c1 [Example 385, TFA] ?
0.1 to 100 nM

Ok, now O=C(Nc1ccc(-c2n[nH]c(=O)c3ccccc23)cc1)c1cnn(CCCN2CCCC2)c1
101 to 1000 nM

Item: CC(C)(C)OC(=O)N1CC(Cn2nc(C(=O)Nc3ccc(-c4n[nH]c(=O)c5ccccc45)c(Cl)c3)c3ccccc32)C1
101 to 1000 nM

Cool, now CC(C)(O)Cn1nc(C(=O)Nc2ccc(-c3n[nH]c(=O)c4ccccc34)cc2O)c2ccccc21
101 to 1000 nM

Record: CC1(C)CCc2[nH]cc(C(=O)Nc3ccc(-c4n[nH]c(=O)c5ccccc45)cc3)c2C1=O
101 to 1000 nM

Similarly, Cc1c(C(=O)Nc2ccc(-c3n[nH]c(=O)c4ccccc34)cc2)nnn1-c1ccccc1 ?
0.1 to 100 nM

Same question, O=C(Nc1ccc(-c2n[nH]c(=O)c3ccccc23)cc1)C1CCc2ccccc21 (stereo not shown) this time
1000 to 50000 nM

Follow-up item: O=C(Nc1ccc(-c2n[nH]c(=O)c3ccccc23)c(Cl)c1)c1nn(CC2CCOC2)c2ccccc12 (stereo not shown)
0.1 to 100 nM

Query Cc1cc(NC(=O)c2c3ccccc3nn2CC2COC2)ccc1-c1n[nH]c(=O)c2ccccc12 next
1000 to 50000 nM

Okay, and O=C(Nc1ccc(-c2n[nH]c(=O)c3ccccc23)cc1)c1cnn(C2C3CCC2CC3)c1 (stereo not shown) ?
0.1 to 100 nM
